Biological target: recombinant BTK (Mus musculus)
Sequence (P35991 whole entry): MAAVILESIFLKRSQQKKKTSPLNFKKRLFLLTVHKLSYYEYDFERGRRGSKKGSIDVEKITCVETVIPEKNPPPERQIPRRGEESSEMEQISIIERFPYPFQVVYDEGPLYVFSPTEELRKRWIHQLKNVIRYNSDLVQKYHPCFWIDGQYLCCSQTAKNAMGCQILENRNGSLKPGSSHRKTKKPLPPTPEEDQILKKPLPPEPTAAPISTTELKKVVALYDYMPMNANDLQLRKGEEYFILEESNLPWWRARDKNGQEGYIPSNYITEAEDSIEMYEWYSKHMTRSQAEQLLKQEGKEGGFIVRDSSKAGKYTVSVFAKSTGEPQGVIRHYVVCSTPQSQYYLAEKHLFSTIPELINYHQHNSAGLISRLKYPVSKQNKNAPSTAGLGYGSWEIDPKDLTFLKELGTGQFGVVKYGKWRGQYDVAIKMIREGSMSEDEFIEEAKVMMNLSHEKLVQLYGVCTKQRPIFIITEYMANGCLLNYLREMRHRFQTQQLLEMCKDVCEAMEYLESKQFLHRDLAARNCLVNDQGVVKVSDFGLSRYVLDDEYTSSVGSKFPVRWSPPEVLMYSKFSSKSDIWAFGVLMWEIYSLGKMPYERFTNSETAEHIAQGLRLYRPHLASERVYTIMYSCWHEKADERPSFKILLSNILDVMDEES
Test: Recombinant BTK immune-complex kinase assay (baculovirus vector expression system)
Settings: recombinant BTK, kinase assay (Table 1)
pIC50: −log10 of the molar value.

[
  {
    "COMPOUND": "CCCc1cc(=O)oc2c(C(=O)CC)c(O)c3c(c12)OC(C)(C)C=C3",
    "pIC50": 4.54
  },
  {
    "COMPOUND": "CCCc1cc(=O)oc2c3c(c4c(c12)OC(C)(C)C=C4)O[C@H](C)[C@@H](C)C3=O (relative stereo)",
    "pIC50": 3.96
  },
  {
    "COMPOUND": "CCCc1cc(=O)oc2c3c(c4c(c12)OC(C)(C)C=C4)O[C@H](C)[C@@H](C)[C@@H]3O (relative stereo) [HI-D63, (±)-Calanolide A]",
    "pIC50": 3.89
  }
]

All values here come from patent US6306897A.
